Cited source: patent US20230066011A1

Tested on: SHP-77
Experimental Protocol: Inhibition of proliferation of SHP-77 cancer cells (Cell Titer-Glo)
Type: cell-based
Recorded Conditions: Homo sapiens, SHP77, 72 hours
Experimental: To evaluate an inhibitory effect on the proliferation of cancer cells, each of an MDA-MB-231 cell line (Korean Cell Line Bank #30026) and an MDA-MB-468 cell line as triple-negative breast cancer cell lines, and SHP-77 (ATCC #CRL-2195) as a small-cell lung cancer cell line was cultured in DMEM (HyClone #SH30243) or an RPMI medium (HyClone #SH3027.01) to analyze a cell growth rate. […] Then, a degree of luminescence was measured using a microplate reader. […]
Please go through the items and note down their GI50.

Respond only with GI50 recorded for CNc1nc(Nc2ccc(S(=O)(=O)N3CCOCC3)cc2OC)nc2[nH]cc(C#N)c12
51 to 100 nM

Report GI50 for COc1cc(S(=O)(=O)N2CCOCC2)ccc1Nc1nc(NC2CCCC2)c2c(C#N)c[nH]c2n1
< 50 nM

Give the reported value of GI50 for this record: CNc1nc(Nc2ccc(S(=O)(=O)N3CCOCC3)cc2OC)nc2[nH]cc(C(F)(F)F)c12
51 to 100 nM

In one line, give reported GI50 of the entry CCCCNc1nc(Nc2ccc(S(=O)(=O)N3CCC(N4CCOCC4)CC3)cc2OC)nc2[nH]cc(C(F)(F)F)c12 .
301 to 1000 nM

For the compound COc1cc(S(=O)(=O)N2CCOCC2)ccc1Nc1nc(NCC2CC2)c2c(C#N)c[nH]c2n1 , give its reported GI50.
< 50 nM

Give reported GI50 value for COc1cc(S(=O)(=O)N2CCOCC2)ccc1Nc1nc(NC(C)C)c2c(C(F)(F)F)c[nH]c2n1
51 to 100 nM

Indicate the recorded GI50 value for this compound: COc1cc(S(=O)(=O)N2CCOCC2)ccc1Nc1nc(NCC2CC2)c2c(C(F)(F)F)c[nH]c2n1
301 to 1000 nM
